assay: Apparent molecular weight (MWapp)
readout_type: MWapp (kDa)
Give bare numbers, in kDa.

Q: Consider the molecule shown here: CC(C)(C)[Si](F)(c1ccc(C(=O)NC[C@@H](NC(=O)[C@@H](CCCNC(N)=O)NC(=O)CC[C@H](C(=O)O)N2CCN(CC(=O)O)CCN(CC(=O)O)CCN(CC(=O)O)CC2)C(=O)NCCCCCC(=O)NCCC[C@@H](NC(=O)CC[C@H](NC(=O)N[C@@H](CCC(=O)O)C(=O)O)C(=O)O)C(=O)O)cc1)C(C)(C)C [Compound 2C015] What is its recorded MWapp?
Ans: 18.9

----------
assay: Octanol-water partition coefficient (log D7.4); format: physicochemical; conditions: PBS pH 7.4 / n-octanol, 177Lu-labelled
Kindly state logD7.4 for each of the entries shown.
Give bare numbers.

CC(C)(C)[Si](F)(c1ccc(C(=O)NC[C@@H](NC(=O)[C@@H](CCCNC(N)=O)NC(=O)CC[C@@H](C(=O)O)N2CCN(CC(=O)O)CCN(CC(=O)O)CCN(CC(=O)O)CC2)C(=O)NCCCCCC(=O)NCCC[C@@H](NC(=O)CC[C@H](NC(=O)N[C@@H](CCC(=O)O)C(=O)O)C(=O)O)C(=O)O)cc1)C(C)(C)C = −3.37
CC(C)(C)[Si](F)(c1ccc(C(=O)NCC(NC(=O)CCC(C(=O)O)N2CCN(CC(=O)O)CCN(CC(=O)O)CCN(CC(=O)O)CC2)C(=O)NC(CN)C(=O)NCCC(=O)NCCC(=O)NCCCC(NC(=O)CCC(NC(=O)NC(CCC(=O)O)C(=O)O)C(=O)O)C(=O)O)cc1)C(C)(C)C (stereo not drawn) = −2.88

Next, consider the following compound.
Q: Requested field: logD7.4. Item: O=C(O)CC[C@H](NC(=O)N[C@@H](CCCCNC(=O)[C@H](Cc1ccc2ccccc2c1)NC(=O)[C@H]1CC[C@H](CNC(=O)CN2CCN(CC(=O)O)CCN(CC(=O)O)CCN(CC(=O)O)CC2)CC1)C(=O)O)C(=O)O [PSMA-617, reference compound]
Ans: −4.10
